// data source = patent US20240374573A1

test system: plasma proteins; assay: in vitro; details: male, C57BL/6J, mouse, pH 7.4
Counter-ions that a name gives are not always drawn.
value_kind: recovery at 4 h, 2 μM (%)
One number for each entry, in %.

Cc1cccc([C@H](C)c2cnc[nH]2)c1C [Dexmedetomidine HCl, dexmedetomidine HCl]; 88.9

Note: attention shifts to another entry.
Ask: Reported recovery at 4 h, 2 μM for Clc1cccc(Cl)c1N=C1NCCN1 [Clonidine HCl, clonidine HCl] : what is it?
Result: 93.2

###

Would you mind telling me the reported pEC50 of each entry?
Target: α2AAR (α2A-adrenergic receptor) (Homo sapiens, UniProt P08913)
Construct: expressed in transfected cells; host or cells: HEK293
Sequence (P08913 1-465): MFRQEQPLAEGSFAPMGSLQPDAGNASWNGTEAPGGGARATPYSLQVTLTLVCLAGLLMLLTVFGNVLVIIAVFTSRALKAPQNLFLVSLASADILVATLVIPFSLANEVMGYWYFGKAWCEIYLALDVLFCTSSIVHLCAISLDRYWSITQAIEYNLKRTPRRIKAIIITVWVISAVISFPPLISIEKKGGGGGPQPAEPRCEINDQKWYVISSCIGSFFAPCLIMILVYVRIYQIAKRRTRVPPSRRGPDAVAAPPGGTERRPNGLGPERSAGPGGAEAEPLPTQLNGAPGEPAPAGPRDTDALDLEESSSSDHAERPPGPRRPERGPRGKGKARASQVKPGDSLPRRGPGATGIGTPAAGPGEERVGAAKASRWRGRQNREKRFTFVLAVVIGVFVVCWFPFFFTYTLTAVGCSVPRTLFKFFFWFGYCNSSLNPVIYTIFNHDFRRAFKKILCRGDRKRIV
Assay: α2AAR FLIPR assay (agonist activity)
Format: cell-based
Details: FLIPR, α2AAR cell line hosted in HEK293 cells; read-out: α2A agonist activity (EC50)
pEC50: −log10 of the molar value.

Cc1cccc(C(Cc2ccc(C(=O)O)c(F)c2)c2c[nH]cn2)c1C (stereo not drawn); 7.30 to 8.00
Cc1cccc(C(COCCOCCNC(=O)Nc2ccncn2)c2c[nH]cn2)c1C (stereo not drawn); 7.30 to 8.00
Cc1cccc(C(Cc2ccc(C(=O)O)cc2)c2c[nH]cn2)c1C (single isomer, unassigned) [175-B]; 7.30 to 8.00
Cc1cccc(C(COCCOCCNS(C)(=O)=O)c2c[nH]cn2)c1C (stereo not drawn); 7.30 to 8.00
Cc1cccc(C(COCCOCCN)c2c[nH]cn2)c1C (stereo not drawn); 6.60 to 7.30
Cc1cccc(C(Cc2ccc3c(c2)OCCN3)c2c[nH]cn2)c1C (stereo not drawn); 7.30 to 8.00
CC(=O)NCCOCCOCC(c1c[nH]cn1)c1cccc(C)c1C (stereo not drawn); 6.60 to 7.30
Cc1cccc(C(Cc2ccc(S(=O)(=O)O)cc2)c2c[nH]cn2)c1C (stereo not drawn); 7.30 to 8.00

For each listed entry, give its pEC50.
1. Cc1cccc(C(c2cccc(NC(=O)CC#N)c2)c2c[nH]cn2)c1C (single isomer, unassigned) [10-A]
2. Cc1cccc(C(Cc2ccc(NC(=O)NC3COC3)cc2)c2c[nH]cn2)c1C (stereo not drawn)
3. Cc1cccc(C(Cc2ccc(NC(=O)C3CCOCC3)cc2)c2c[nH]cn2)c1C (stereo not drawn)
4. Cc1cccc(C(c2c[nH]cn2)c2cccc(C(=O)NOC3CCOCC3)n2)c1C (stereo not drawn)
5. Cc1cccc(C(Cc2ccc(C(=O)NS(=O)(=O)c3ccccc3)cc2)c2c[nH]cn2)c1C (stereo not drawn)

Result:
1: < 6.00; 2: 7.30 to 8.00; 3: > 8.00; 4: 7.30 to 8.00; 5: 6.60 to 7.30
